The measurements presented in this section are drawn from PubChem BioAssay.

MEASUREMENT DESCRIPTION: viability loss in pontine glioma line – cell-based, SU-DIPG-XXV, MIPE5.0, CellTiter-Glo, qHTS, dose response (AID 1347065);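 further: cells exposed to compound for 48 hours before ATP readout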
CONDITION DESCRIPTION: CellTiter-Glo ATP luminescence
Inconclusive results are not listed. Active and inactive are the calls of the source. Cut-off not given; nearly all actives show AC50 up to about 26 µM. Bridge positions count the residues as written; N and C are the ends. Square brackets hold non-standard residues; d marks the D form. Peptide text beside a SMILES is read from it. * marks the point of attachment. X2 = CCC(C)C(N)C1=NC(C(=O)*)CS1; dOrn = NCCC[C@@H](N)C(=O)O
RECORDED ENDPOINT: AC50

- COMPOUND: "COc1cc(C)c(Sc2cnc(NC(=O)c3ccc(CNC(C)C(C)C)cc3)s2)cc1C(=O)N1CCN(C(C)=O)CC1 (stereo unspecified)"
  RESULT: "10500 nM (active)"
- COMPOUND: "C=CC(=O)N1CCc2ccc(-n3c(=O)ccc4cnc5ccc(-c6cnn(C)c6)cc5c43)cc21"
  RESULT: "144 nM (active)"
- COMPOUND: "CN(Cc1ccc(/C=C/C(=O)NO)cc1)CC12CC3CC(CC(C3)C1)C2"
  RESULT: "263 nM (active)"
- COMPOUND: "CN(C)C1CCN(C(=O)c2ccc(NC(=O)Nc3ccc(-c4nc(N5CCOCC5)nc(N5CCOCC5)n4)cc3)cc2)CC1"
  RESULT: "295 nM (active)"
- COMPOUND: "CCCCOc1ccc(C(=O)Nc2ccc(F)cc2F)cc1"
  RESULT: "inactive"
- COMPOUND: "CC1(C)Cc2c(sc(NC(=S)NC(=O)c3ccccc3)c2C(=O)O)CO1"
  RESULT: "inactive"
- COMPOUND: "NC[C@@](O)(c1ccc(Cl)cc1)c1ccc(-c2cn[nH]c2)cc1"
  RESULT: "13200 nM (active)"
- COMPOUND: "CN[C@@H]1[C@@H](O)[C@@H](O[C@@H]2[C@@H](O)[C@H](O[C@H]3O[C@H](CN)[C@@H](O)[C@H](O)[C@H]3O)[C@@H](N)C[C@H]2NC(=O)C(O)CN)OC[C@]1(C)O (stereo partly specified)"
  RESULT: "inactive"
- COMPOUND: "CCC(C)C(N)C1=NC(C(=O)N[C@@H](CC(C)C)C(=O)N[C@H](CCC(=O)O)C(=O)N[C@H](C(=O)N[C@H]2CCCCNC(=O)[C@H](CC(N)=O)NC(=O)[C@@H](CC(=O)O)NC(=O)[C@H](Cc3cnc[nH]3)NC(=O)[C@@H](Cc3ccccc3)NC(=O)[C@H]([C@@H](C)CC)NC(=O)[C@@H](CCCN)NC2=O)[C@@H](C)CC)CS1 (stereo partly specified) (X2-L[dE]IK[dOrn]I[dF]H[dD]N; lactam 4-C)"
  RESULT: "inactive"
- COMPOUND: "CCOC(=O)C1=C[C@@H](OC(CC)CC)[C@H](NC(C)=O)[C@@H](N)C1"
  RESULT: "inactive"
- COMPOUND: "COc1cc2c(cc1OCCCN1CCCC1)N=C(N)C21CCC1"
  RESULT: "inactive"
- COMPOUND: "Cc1ccc([N+](=O)[O-])cc1S(=O)(=O)N(C)/N=C/c1cnc2ccc(Br)cn12"
  RESULT: "118 nM (active)"
- COMPOUND: "CC(C)Nc1cc(-c2c[nH]c(C(=O)N[C@H](CO)c3cccc(Cl)c3)c2)c(Cl)cn1"
  RESULT: "3320 nM (active)"
- COMPOUND: "Cn1c(Nc2ccc(C(F)(F)F)cc2)nc2cc(Oc3ccnc(-c4ncc(C(F)(F)F)[nH]4)c3)ccc21"
  RESULT: "372 nM (active)"
- COMPOUND: "CC(C)(C)c1nc2c3cc[nH]c(=O)c3c3cc(F)ccc3c2[nH]1"
  RESULT: "1480 nM (active)"
- COMPOUND: "FC(F)(F)c1ccc(Nc2nc(-c3c(C(F)(F)F)nc4ccccn34)cs2)cc1"
  RESULT: "372 nM (active)"
